# Species: Homo sapiens
# test details: Selectivity, ratio of EC50 for human P2Y6 receptor to EC50 for human P2Y14 receptor
Quick reference for Ratio EC50 among some molecules

{"molecule": "CCCOP(=O)(O)OP(=O)(O)OC[C@H]1O[C@@H](n2ccc(=O)[nH]c2=S)[C@H](O)[C@@H]1O", "qualifier operator": "=", "Ratio EC50": 230}
{"molecule": "O=c1ccn([C@@H]2O[C@H](COP(=O)(O)OP(=O)(O)OC(CO)CO)[C@@H](O)[C@H]2O)c(=O)[nH]1", "qualifier operator": "=", "Ratio EC50": 59}
{"molecule": "CC(C)(C)OP(=O)(O)OP(=O)(O)OC[C@H]1O[C@@H](n2ccc(=O)[nH]c2=S)[C@H](O)[C@@H]1O", "qualifier operator": "=", "Ratio EC50": 64}
{"molecule": "O=c1ccn([C@@H]2O[C@H](COP(=O)(O)CP(=O)(O)O)[C@@H](O)[C@H]2O)c(=O)[nH]1", "qualifier operator": "=", "Ratio EC50": 31}
{"molecule": "CC(C)(C)OP(=O)(O)OP(=O)(O)OC[C@H]1O[C@@H](n2ccc(=O)[nH]c2=O)[C@H](O)[C@@H]1O", "qualifier operator": "=", "Ratio EC50": 43}
{"molecule": "CCOP(=O)(O)OP(=O)(O)OC[C@H]1O[C@@H](n2ccc(=O)[nH]c2=S)[C@H](O)[C@@H]1O", "qualifier operator": ">", "Ratio EC50": 250}
{"molecule": "O=c1ccn([C@@H]2O[C@H](COP(=O)(O)OP(=O)(O)O)[C@@H](O)[C@H]2O)c(=S)[nH]1", "qualifier operator": "=", "Ratio EC50": 230}
{"molecule": "O=c1ccn([C@@H]2O[C@H](COP(=O)(O)CP(=O)(O)O)[C@@H](O)[C@H]2O)c(=S)[nH]1", "qualifier operator": "=", "Ratio EC50": 2160}

* * *

# tested on: P2Y purinoceptor 14 (Homo sapiens, UniProt Q15391)
# Sequence (Q15391 whole entry): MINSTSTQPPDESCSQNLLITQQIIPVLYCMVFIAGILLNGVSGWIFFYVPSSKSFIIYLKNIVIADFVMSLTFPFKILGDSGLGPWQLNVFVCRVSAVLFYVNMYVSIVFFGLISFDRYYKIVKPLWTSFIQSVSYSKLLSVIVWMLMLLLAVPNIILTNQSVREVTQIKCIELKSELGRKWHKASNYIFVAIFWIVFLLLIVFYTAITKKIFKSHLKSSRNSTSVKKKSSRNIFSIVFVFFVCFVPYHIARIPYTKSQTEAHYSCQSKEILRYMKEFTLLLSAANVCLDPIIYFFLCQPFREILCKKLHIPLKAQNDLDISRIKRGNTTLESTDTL
# test details: Agonist activity at human P2Y14 receptor expressed in HEK293 cells coexpressing phospholipase C-activating Gi protein cells assessed as inhibition of forskolin induced [3H]cAMP production
# Format: functional, cell-based
# condition summary: read-out: EC50
pEC50: −log10 of the molar value.
Quick reference for pEC50 among some compounds

{"compound": "CCOP(=O)(O)OP(=O)(O)OC[C@H]1O[C@@H](n2ccc(=O)[nH]c2=S)[C@H](O)[C@@H]1O", "pEC50": 7.41}
{"compound": "O=c1ccn([C@@H]2O[C@H](COP(=O)(O)OP(=O)(O)OC(CO)CO)[C@@H](O)[C@H]2O)c(=O)[nH]1", "pEC50": 6.78}
{"compound": "O=c1ccn([C@@H]2O[C@H](COP(=O)(O)OP(=O)(O)OCC(O)CO)[C@@H](O)[C@H]2O)c(=O)[nH]1 (stereo partly drawn)", "pEC50": 5.80}
{"compound": "O=c1[nH]c(=O)n([C@@H]2O[C@H](COP(=O)(O)C(F)(F)P(=O)(O)O)[C@@H](O)[C@H]2O)cc1I", "pEC50": 6.85}
{"compound": "CCCOP(=O)(O)OP(=O)(O)OC[C@H]1O[C@@H](n2ccc(=O)[nH]c2=S)[C@H](O)[C@@H]1O", "pEC50": 7.40}
{"compound": "O=c1ccn([C@@H]2O[C@H](COP(=O)(O)C(F)(F)P(=O)(O)O)[C@@H](O)[C@H]2O)c(=O)[nH]1", "pEC50": 7.20}
{"compound": "C#CCCOP(=O)(O)OP(=O)(O)OC[C@H]1O[C@@H](n2ccc(=O)[nH]c2=S)[C@H](O)[C@@H]1O", "pEC50": 7.96}
{"compound": "O=c1[nH]c(=S)ccn1[C@@H]1O[C@H](COP(=O)(O)OP(=O)(O)O)[C@@H](O)[C@H]1O", "pEC50": 6.49}

Data provenance: ChEMBL document CHEMBL1156754
